# assayed target: T1, rhCD39-ECD-His (R&D Systems) (human, UniProt P49961 38-478)
# T1 construct: Bought protein; that entry runs on through the C-terminal transmembrane and cytoplasmic residues; also called recombinant human CD39 extracellular domain; soluble recombinant human CD39 (ENTDP1) ECD; not shown: His tag
# T1 sequence: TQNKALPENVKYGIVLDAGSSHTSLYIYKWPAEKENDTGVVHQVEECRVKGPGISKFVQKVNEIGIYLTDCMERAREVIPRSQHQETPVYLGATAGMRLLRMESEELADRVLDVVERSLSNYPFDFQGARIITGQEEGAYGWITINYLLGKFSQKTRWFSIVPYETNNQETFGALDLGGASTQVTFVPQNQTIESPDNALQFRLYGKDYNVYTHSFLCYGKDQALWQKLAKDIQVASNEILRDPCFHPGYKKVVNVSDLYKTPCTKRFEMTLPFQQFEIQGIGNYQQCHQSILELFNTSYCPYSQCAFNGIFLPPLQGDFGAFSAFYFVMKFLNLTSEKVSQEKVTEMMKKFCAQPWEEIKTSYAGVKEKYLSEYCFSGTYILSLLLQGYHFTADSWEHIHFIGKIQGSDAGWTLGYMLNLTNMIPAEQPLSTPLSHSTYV
# protocol notes: BLI (Octet), IgG on anti-human Fc sensor, rhCD39-ECD-His 10-300 nM, 1:1 fit
Please respond with reported Kd for every item in the list.
Write the number in nM without appending the unit.

Item 31393 (antibody, V domains shown) VH: QVQLVQSGAEVKKPGSSVKVSCKASGGTFESYGISWVRQAPGQGLEWMGSIIPEFGIANYAQKFQGRVTITADESTSTTYMELSSLRSEDTAVYYCARESGGYRDHRLDVWGQGTMVTVSS VL: EIVMTQSPATLSVSPGERATLSCRASQSVGSNLAWYQQKPGQAPRLLIYGASTRATGIPARFSGSGSGTEFTLTISSLQSEDFAVYYCQQYLLWPLTFGGGTKVEIKR has what recorded Kd?
0.672

Item 27577 (antibody, V domains shown) VH: QVQLVQSGAEVKKPGSSVKVSCKASGGAFSSYAIGWVRQAPGQGLEWMGGIIPTFGTANYAQKFQGRVTITADESTSTAYMELSSLRSEDTAVYYCARDGGGYQHHYFDLWGRGTLVTVSS VL: EIVMTQSPATLSVSPGERATLSCRASQSVGSNLAWYQQKPGQAPRLLIYGASTRATGIPARFSGSGSGTEFTLTISSLQSEDFAVYYCQQLTKWPLTFGGGTKVEIKR has what recorded Kd?
409

Item 27568 (antibody, V domains shown) VH: QVQLVQSGAEVKKPGSSVKVPCKASGGTFSSYAISWVRQAPEQGLEWMGSIIPIFGTANYAQKFQGRVTITADESTSTAYMELSSLRSEDTAVYYCAGESGGYRDHKLDVWGQGTVVTVSS VL: EIVLTQSPATLSLSPGERATLSCRASQSVSSYLAWYQQKPGQAPRLLIYDASNRATGIPARFSGSGSGTDFTLTISSLEPEDFAVYYCQQSVFWPITFGGGTKVEIKR has what recorded Kd?
173
